- tgt: recombinant human cIAP1-BIR3 protein (Homo sapiens, UniProt Q13490)
- Construct: recombinant human cIAP1-BIR3 protein; purchased Reaction biology APT-11-370
- Sequence (Q13490 253-363 limits assumed): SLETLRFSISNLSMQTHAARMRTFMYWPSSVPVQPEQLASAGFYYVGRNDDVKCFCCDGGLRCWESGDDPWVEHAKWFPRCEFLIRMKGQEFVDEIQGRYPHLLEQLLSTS
- assay.protocol: Recombinant human c-IAP1-BIR3 biochemical assay (HTRF, peptide displacement)
- measurement.context: 1.2 nM cIAP1-BIR3, 3 nM AbuRPF-K(5-Fam)-NH2 peptide, read-out: Protein binding IC50 (nM) c-IAP1
measure: IC50 (nM)

Solved cases below.
>>> print(df.to_string())
                                   molecule  assay_value
0  C[C@@H]1CN(CC(=O)N2c3cc(Cc4ccc(F)cc4)cnc3OC[C@@H]2C2CCCCC2)[C@@H](CN2CCOC[C@H]2C)CN1 [Compound 42]         0.34
1  C[C@@H]1CN(CC(=O)N2c3cc(Cc4ccc(F)cc4)c(C(=O)NCCO)nc3OC[C@@H]2C)[C@@H](CN2[C@H](C)COC[C@H]2C)CN1 [Example 73]         0.18
2  C[C@@H]1CN(CC(=O)N2c3cc(Cc4ccc(F)cc4)cnc3OC[C@@H]2C)[C@@H](CN2[C@H](C)COC[C@H]2C)CN1 [Compound 22]         0.13

A = C[C@@H]1CN(CC(=O)N2c3cc(Cc4ccc(F)cc4)c(C(=O)NC[C@@H]4CCCO4)nc3OC[C@@H]2C)[C@@H](CN2[C@H](C)COC[C@H]2C)CN1 [Compound 93]
B = C[C@@H]1CN(CC(=O)N2CCOc3ncc(Cc4ccc(F)cc4)cc32)[C@@H](CN2C[C@H]3C[C@@H]2CO3)CN1 [Compound 14]
IN: Returns: the label, A or B , whose recorded IC50 is the lower number. Field: selected label. Fill in the label of the entry you choose.
OUT: A

A = C[C@@H]1CN(CC(=O)N2c3cc(Cc4ccc(F)cc4)c(CN4CC(O)C4)nc3OC[C@@H]2C)[C@@H](CN2[C@H](C)COC[C@H]2C)CN1 [Compound 114]
B = C[C@@H]1CN(CC(=O)N2c3cc(Cc4ccc(F)cc4)c(CO)nc3OC[C@@H]2C)[C@@H](CN2C[C@H](C)OC[C@H]2C)CN1 [Compound 49]
C = CCOC[C@@H]1COCCN1C[C@H]1CN[C@H](C)CN1CC(=O)N1c2cc(Cc3ccc(F)cc3)c(CO)nc2OC[C@@H]1C [Compound 53]
D = C[C@@H]1CN(CC(=O)N2c3cc(Cc4ccc(F)cc4)cnc3OC[C@H]2C)[C@@H](CN2CCOC[C@H]2C)CN1 [Compound 19B]
E = C[C@@H]1CN(CC(=O)N2CCOc3nc(C4(O)CC4)c(Cc4ccc(F)cc4)cc32)[C@@H](CN2CCOC[C@H]2C)CN1 [Compound 21]
IN: Put the molecules in ascending order of IC50. List the labels, following the order given in the request.
OUT: A, B, C, E, D

P = C[C@@H]1CN(CC(=O)N2c3cc(Cc4ccc(F)cc4)c(-c4ccc(F)cc4)nc3OC[C@@H]2C)[C@@H](CN2[C@H](C)COC[C@H]2C)CN1 [Compound 113]
Q = COC[C@@H]1COCCN1C[C@H]1CN[C@H](C)CN1CC(=O)N1c2cc(Cc3ccc(F)cc3)c(CO)nc2OC[C@@H]1C [Compound 52]
IN: When their IC50 values are compared, which is larger, P or Q ? Field: selected label. Fill in the label of the entry you choose.
OUT: Q
(Q: 0.55 nM, P: 0.25 nM)

a = COCCNC(=O)c1nc2c(cc1Cc1ccc(F)cc1)N(C(=O)CN1C[C@@H](C)NC[C@@H]1CN1[C@H](C)COC[C@H]1C)[C@@H](C)CO2 [Example 66]
b = COCCOc1nc2c(cc1Cc1ccc(F)cc1)N(C(=O)CN1C[C@@H](C)NC[C@@H]1CN1[C@H](C)COC[C@H]1C)[C@@H](C)CO2 [Compound 89]
IN: Returns: the label, a or b , whose recorded IC50 is the lower number. Field: selected label. Fill in the label of the entry you choose.
OUT: b
(b: 0.17 nM, a: 0.25 nM)
